tested on: P388 leukemia ip, CD2F1 mice, survival T/C; experiment: NCI In Vivo Anticancer Drug Screen. Data for tumor model P388 Leukemia (intraperitoneal) in CD2F1 (CDF1) mice; conditions: endpoint: median survival time; dose: 200.0 mg/kg/injection; schedule: Q01DX005 (ip); vehicle: Klucel (hydroxypropylcellulose) (HPC); higher = longer survival
Toxic doses and inconclusive results are not listed. Bridge positions count the residues as written; N and C are the ends. Square brackets hold non-standard residues; d marks the D form. Peptide text beside a SMILES is read from it. I, II: the chains in the order shown. Tyr(3-NO2) = N[CH](Cc1ccc(O)c([N+](=O)[O-])c1)C(=O)O
Please respond with reported T/C for every item in the list.

- compound: "Clc1cccc2nc(-c3ccccn3)n(CCc3ccncc3)c12"
  T/C: "93 % of control"
- compound: "O=C(NN=C1CCCCC1)C(=O)Nc1cccc(C(F)(F)F)c1"
  T/C: "88 % of control"
- compound: "O=C(O)C1CCCN1C(=O)OCc1ccccc1 (centres undefined)"
  T/C: "89 % of control"
- compound: "C/C(=C1/N=C(c2ccccc2)OC1=O)c1cccs1"
  T/C: "96 % of control"
- compound: "O=S(=O)(O/C(=C(\\OS(=O)(=O)C(F)(F)F)c1ccccc1)c1ccccc1)C(F)(F)F"
  T/C: "91 % of control"

Could I get T/C for every one of these entries?
1. CC1(C)OC2C(COC(c3ccccc3)(c3ccccc3)c3ccccc3)OC(n3ccc(=O)[nH]c3=O)C2O1 (centres undefined)
2. COc1cccc(C2OC3=C(Nc4ccc(Cl)cc4N3)C2=O)c1 (centres undefined)
3. O=c1c2sc3ccccc3c2ncn1/N=C/c1cccc([N+](=O)[O-])c1
4. O=C(OCCCl)c1ccccc1NC(=O)N1CCOCC1
5. O=Cc1ccc(N2OC3C(=O)N(c4ccccc4)C(=O)C3C2c2ccc([N+](=O)[O-])cc2)cc1 (centres undefined)
6. CC(=O)c1c(O)c2c(=O)n(C)c(C)cc2n(C)c1=O
7. CC1CCN(C(=O)c2nc3ccccc3[nH]2)CC1

OUTPUT:
1: 88 % of control; 2: 90 % of control; 3: 91 % of control; 4: 98 % of control; 5: 97 % of control; 6: 98 % of control; 7: 107 % of control

Provide the reported T/C of each entry below, same order.
1. NC(=O)C(Cc1ccc(O)c([N+](=O)[O-])c1)NC(=O)C(N)Cc1ccccc1 (centres undefined) (H-Phe-[Tyr(3-NO2)]-NH2; configuration not given here)
2. CCN(CC)C1=C(c2ccccc2)C(=O)C1(C#N)C(C)(C)C (centres undefined)

OUTPUT:
["96 % of control", "93 % of control"]

// batch mode: one T/C value per listed entry
1. N#CCc1c(-c2ccccc2)c(-c2ccccc2)c2n1CCC2
2. Nc1ccc2cc(S(=O)(=O)O)c(N=Nc3ccc(-c4ccc(N=Nc5ccc(O)c(C(=O)O)c5)cc4)cc3)c(O)c2c1

OUTPUT:
["96 % of control", "95 % of control"]

Each compound below has a reported value. Please supply its T/C.
1. Cn1nnnc1-c1ccc(C(=O)O)cc1
2. NC1C(=O)NC(=O)NC1=O
3. COC(=O)c1ccccc1N1C(=O)c2ccccc2NP1(=O)Oc1ccccc1 (centres undefined)
4. CC(C)C(NC(=O)C(N)CSSCC(N)C(=O)NC(C(=O)O)C(C)C)C(=O)O (stereo not drawn) (I: H-Cys-Val-OH / II: H-Cys-Val-OH; disulfide I:1-II:1; configuration not given here)
5. C[C@H]1CC[C@@H]2O[C@@]23C(=O)OC2OC(C)(C)[C@@H]([C@H]2O)[C@]13C
6. Cc1cc(=O)c2cc3c(cc2[nH]1)OCO3

OUTPUT:
93 % of control
100 % of control
91 % of control
101 % of control
107 % of control
100 % of control

List reported T/C for each of these compounds:
1. CC1=C/C(O)CC(=O)Cc2nc(co2)C(=O)N2CCC=C2C(=O)OC(C(C)C)C(C)/C=C\C(=O)NC/C=C\1 (centres undefined)
2. C=CCC1(OC(C)=O)CC2C(=O)C(=O)C(C1)N2OC(=O)c1ccccc1 (centres undefined)

OUTPUT:
111 % of control
94 % of control

# return T/C for each item in the list
1. CC(=O)c1ccc2c3c(cc(C)c2c1)CCCC3
2. COc1cc(N)c2ncccc2c1Br
3. O=C1c2ccccc2-c2nsc3c(C(Br)Br)ccc1c23
4. CNc1ccccc1C(=O)NCCCN

OUTPUT:
1. 89 % of control
2. 97 % of control
3. 91 % of control
4. 95 % of control

Please give T/C, item by item, for the list that follows.
1. O=c1oc(-c2ccccc2)nc2c1CCS2
2. Cc1nnc2cc1CCCCCCCCC2

OUTPUT:
["90 % of control", "103 % of control"]

List T/C for every entry below, keeping the order given.
1. CCOC(=O)c1cnc(SC)n(-c2ccc(Cl)cc2)c1=O
2. CCOC(=O)Nc1nc2ccccc2n1CN1CCOCC1
3. CC1=C2CCC3(C)C(=C2OC1=O)C(C)=C(Cl)C(Br)C3Br (centres undefined)
4. O=CNC(CSSCC(NC=O)C(=O)O)C(=O)O (centres undefined)
5. CC1CC(=O)CCC2(C)C(OC(C)(C)C)CCC12 (centres undefined)
6. N#Cc1ccc(N2CCCC2)c(C#N)c1Cl

OUTPUT:
1: 108 % of control; 2: 115 % of control; 3: 118 % of control; 4: 95 % of control; 5: 99 % of control; 6: 99 % of control

---

system: P388 leukemia ip, CD2F1 mice, survival T/C; test: NCI In Vivo Anticancer Drug Screen. Data for tumor model P388 Leukemia (intraperitoneal) in CD2F1 (CDF1) mice; conditions: endpoint: median survival time; dose: 100.0 mg/kg/injection; schedule: Q01DX005 (ip); vehicle: saline with Tween-80; higher = longer survival
Toxic doses and inconclusive results are not listed.
Provide the recorded T/C for the entries that follow.

See these solved cases before continuing.
- molecule: "O=C(Nc1ccc(Cl)c(Cl)c1Cl)/C(Cl)=C1/Sc2ccccc2NC1=O"
  T/C: "101 % of control"
- molecule: "C/C(=N\\NC(=S)Nc1nccs1)c1nccc2ccccc12"
  T/C: "114 % of control"
- molecule: "CC(C)CCCC(C)C1CCC2C3CCC4CC5(C)C(CC4(C)C3CCC12C)C(=O)C5(Cl)Cl (stereo not given)"
  T/C: "100 % of control"
- molecule: "O=C1C2C3C=CC(C3)C2C(=O)N1O (stereo not given)"
  T/C: "100 % of control"
- molecule: "C/C(N=NC(=S)N1CCCCC1)=C1\\C=CC=CN1O"
  T/C: "98 % of control"
- molecule: "COc1ccc(C2[C@@H]3CCc4ccccc4C3=NN2C(C)=O)cc1 (stereo not given in full)"
  T/C: "91 % of control"
- molecule: "O=C(CCCCC(=O)Nc1ccc2[nH]c3ccccc3c(=O)c2c1)Nc1ccc2[nH]c3ccccc3c(=O)c2c1"
  T/C: "105 % of control"
- molecule: "CC(C)CC(NC(=O)C(Cc1ccccc1)NC(=O)CNC(=O)C(C)NC(=O)C(N)Cc1ccc(O)cc1)C(=O)O (stereo not given)"
  T/C: "109 % of control"

Please give T/C for each item listed below.
1. C=CCc1cc2c(cc1C(C)c1ccc(OC)cc1)OCO2 (stereo not given)
2. NCCNc1ncnc2ccc(Cl)cc12
3. CC(C)=C[C@@H]1c2c(c3ccccc3n(C)c2=O)O[C@H]2c3c(c4ccccc4n(C)c3=O)OC(C)(C)[C@@H]12
4. N#CC1=C(O)NC(O)=C(C#N)C12C(=O)Nc1ccccc12

OUTPUT:
109 % of control
93 % of control
100 % of control
104 % of control

# batch: return T/C for each of the 3 molecules below
1. C=C1C(=O)OC2C[C@]3(C)C(CC12)C(=C)C(O)C[C@@H]3OC(=O)C(C)CC (stereo not given in full)
2. COC1CCCCC1C(=O)C(C#N)C1CCCCC1C1CCCCC1 (stereo not given)
3. Oc1c(Cl)c(Cl)c2ncccc2c1Cl

OUTPUT:
1. 103 % of control
2. 98 % of control
3. 107 % of control

---

system: P388 leukemia ip, CD2F1 mice, survival T/C; assay: NCI In Vivo Anticancer Drug Screen. Data for tumor model P388 Leukemia (intraperitoneal) in CD2F1 (CDF1) mice; conditions: endpoint: median survival time; dose: 50.0 mg/kg/injection; schedule: Q01DX009 (ip); vehicle: saline; higher = longer survival
Toxic doses and inconclusive results are not listed.
measured.metric: T/C

- molecule: "O=C(O)C[n+]1ccccc1"
  T/C: "101 % of control"
- molecule: "CC(Nc1cccc([N+](=O)[O-])c1)S(=O)(=O)O (stereo not drawn)"
  T/C: "97 % of control"
- molecule: "CC1CCCCC1OC(=O)Nc1ccccc1 (stereo not drawn)"
  T/C: "105 % of control"

Parameter requested: T/C. Apply to each item below.
1. Cn1c(CC(O)c2nc3ccccc3n2C)nc2ccccc21 (stereo not drawn)
2. Nc1cccc(S(=O)(=O)Nc2ncc(Cl)cn2)c1.[Ag]

OUTPUT:
114 % of control
93 % of control

Batch: T/C for all items listed.
1. C[CH](C)[Ge]([CH3])([CH](C)C)[CH](C)C
2. CN(C)c1ccc(/C=C2\C=Cc3ccccc32)cc1Cl
3. O=C(CN1CCCCC1)Nc1cccc(Cl)c1
4. O=NNc1ccc(Sc2ccc(NN=O)cn2)nc1
5. CN(C)C(=O)NC1(N(C)C)CC1

OUTPUT:
1. 100 % of control
2. 94 % of control
3. 103 % of control
4. 122 % of control
5. 100 % of control

Return reported T/C values for all items listed beneath this line.
1. C=CC(=O)NC(C)(C)CC(=O)O
2. CCO[Si](O[Si](OCC)(c1ccccc1)c1ccccc1)(c1ccccc1)c1ccccc1
3. [CH3][Sb]([CH3])([CH3])([CH3])[I]

OUTPUT:
["100 % of control", "93 % of control", "98 % of control"]

This collection of values is drawn from PubChem BioAssay AID330.
